Recorded Endpoint: melting point

Recorded results for 5 compounds are shown here.
# Compound, melting point
records = [
    ("COc1ccc(C(=O)N/N=C2\\C=C(C)C(=O)c3ccccc32)cc1 [Compound 2]", "252.9 to 253.4 °C"),
    ("CC1=C/C(=N/NC(=O)c2ccc(C#N)cc2)c2ccccc2C1=O [Compound 6]", "290.3 to 292.7 °C"),
    ("CC1=C/C(=N\\NC(=O)c2ccc(O)cc2)c2ccccc2C1=O [Compound 1]", "274.3 to 275.7 °C"),
    ("CC(=O)Nc1ccc(C(=O)N/N=C2\\C=C(C)C(=O)c3ccccc32)cc1 [Compound 5]", "280.5 to 280.8 °C"),
    ("CC1=C/C(=N\\NC(=O)c2ccc3[nH]ccc3c2)c2ccccc2C1=O [Compound 4]", "251.9 to 252.9 °C"),
]

// moving on: another record for melting point
The recorded melting point for COc1cc(C(=O)N/N=C2\C=C(C)C(=O)c3ccccc32)ccc1O [Compound 3] is 254.8 to 255.6 °C

###

- Measured On: wild-type nAChR α7 receptors (Homo sapiens)
- Sequence (P36544 23-502): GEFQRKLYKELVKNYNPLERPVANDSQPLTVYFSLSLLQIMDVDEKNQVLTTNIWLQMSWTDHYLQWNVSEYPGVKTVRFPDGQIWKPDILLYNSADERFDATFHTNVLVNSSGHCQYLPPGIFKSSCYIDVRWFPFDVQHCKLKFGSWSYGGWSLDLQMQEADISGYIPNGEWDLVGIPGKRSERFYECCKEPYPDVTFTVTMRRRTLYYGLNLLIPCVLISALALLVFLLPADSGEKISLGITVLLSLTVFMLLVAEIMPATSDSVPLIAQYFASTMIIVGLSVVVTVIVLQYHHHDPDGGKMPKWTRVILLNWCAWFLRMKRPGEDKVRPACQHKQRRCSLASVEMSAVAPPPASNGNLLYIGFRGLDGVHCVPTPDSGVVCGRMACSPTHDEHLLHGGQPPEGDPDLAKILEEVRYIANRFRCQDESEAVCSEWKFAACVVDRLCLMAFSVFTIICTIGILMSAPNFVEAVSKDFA
- Measurement Description: Positive modulation of nAChR α7 receptors expressed in Xenopus laevis oocytes, two-electrode voltage clamp
- Run Conditions: Xenopus laevis oocytes clamped at −60 mV; currents induced by 100 μM acetylcholine; compound 0.01-31.6 μM applied 30 s before and during acetylcholine; read-out: EC50 (concentration causing a half maximal response) of positive modulation
Recorded Endpoint: EC50 (nM)
State the answer as a number, implicitly in nM.

Assay wild-type nAChR α7 receptors (Homo sapiens), sample COc1cc(C(=O)N/N=C2\C=C(C)C(=O)c3ccccc32)ccc1O , EC50 read: 490

Source listed as patent US20100292334A1.
